- tested.target: Dual specificity tyrosine-phosphorylation-regulated kinase 1A (Homo sapiens) (UniProt Q13627)
- measurement.conditions: at 0.1 µM
- Description: GSK_PKIS: DYRK1A mean inhibition at 0.1 uM [Nanosyn]
measurement.name: inhibition (%)
Kindly answer with a numeric value in %, unit omitted.

Task item: Which inhibition is listed for COC(=O)Nc1nc2cc(Oc3cccc(NC(=O)Nc4cc(C(F)(F)F)ccc4F)c3)ccc2[nH]1 ?
Reply: -0.01

Task item: If you can, please state the reported inhibition value of Nc1nc(-c2ccc3c(c2)C(=Cc2cc(Br)c(O)c(Br)c2)C(=O)N3)cs1 .
Reply: 1.71

Task item: So what does the record say about inhibition for COc1cc2ncn(-c3cc(OCc4ccccc4C(F)(F)F)c(C(N)=O)s3)c2cc1OC ?
Reply: -1.02

Task item: Name the reported inhibition value associated with the molecule CCn1c(-c2nonc2N)nc2cncc(C(=O)N3CCNCC3)c21
Reply: 3.49

Task item: GET /values?readout=inhibition&item= c1cnn2ncc(-c3ccnc(Nc4ccc5c(c4)OCCO5)n3)c2c1
Reply: 79.6

Task item: Reported inhibition, molecule NC(=O)c1ccc(-c2nc(-c3ccccn3)c(-c3ccc4c(c3)OCO4)[nH]2)cc1 : ____
Reply: 1.47

Task item: I have this molecule here, Cc1cccc(-c2n[nH]cc2-c2ccc3ncccc3n2)n1 , and I need its recorded inhibition.
Reply: 1.27

Task item: # input molecule: Fc1cccc(COc2ccc(Nc3ncnc4cc(-c5ccc[nH]5)sc34)cc2Cl)c1 ; wanted: its inhibition
Reply: -2.81

Task item: Field request: inhibition | item: CCn1c(-c2nonc2N)nc2cnc(Oc3cccc(NC(=O)c4ccc(OCCN5CCOCC5)cc4)c3)cc21
Reply: 0.91

Task item: GET /values?readout=inhibition&item= CNC(=O)c1cncc(/C=C/c2c(Cl)cccc2Cl)c1
Reply: -1.12

====

- tested.target: Serine/threonine-protein kinase 4 (Homo sapiens) (UniProt Q13043);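 note: mean inhibition of MST1, reported as part of the GSK PKIS dataset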
- Sequence (Q13043 whole entry): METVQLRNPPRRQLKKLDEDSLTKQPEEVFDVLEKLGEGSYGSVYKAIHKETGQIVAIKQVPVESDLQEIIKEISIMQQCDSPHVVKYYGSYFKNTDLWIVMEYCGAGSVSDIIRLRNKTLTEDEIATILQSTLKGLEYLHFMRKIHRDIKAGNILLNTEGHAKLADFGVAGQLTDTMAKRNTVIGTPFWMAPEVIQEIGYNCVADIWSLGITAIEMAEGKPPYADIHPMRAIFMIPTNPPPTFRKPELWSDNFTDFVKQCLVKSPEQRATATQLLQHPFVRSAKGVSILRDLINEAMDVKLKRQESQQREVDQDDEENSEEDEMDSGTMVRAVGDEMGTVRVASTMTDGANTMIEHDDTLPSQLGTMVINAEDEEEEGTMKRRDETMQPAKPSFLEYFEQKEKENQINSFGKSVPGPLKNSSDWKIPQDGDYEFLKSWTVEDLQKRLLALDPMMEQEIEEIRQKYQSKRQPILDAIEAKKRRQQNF
- measurement.conditions: at 0.1 µM
measurement.name: inhibition (%)
Numbers only; they are read as %.

Task item: I have this compound here, NC(=O)c1cccc(Nc2nccc(Nc3cccc4[nH]ncc34)n2)c1 , and I need its recorded inhibition.
Reply: -3.17

Task item: Can you share its inhibition? I mean this compound: CN1CCC(C(=O)Nc2n[nH]c3nnc(-c4ccccc4)cc23)CC1
Reply: 4.72

Task item: Looking for the measured inhibition of COc1ccccc1Nc1ncc(-c2ccccc2)o1 , can you help?
Reply: 3.93

Task item: # inhibition lookup, item NC(=O)c1ccc(-c2nc(-c3ccccn3)c(-c3ccc4c(c3)OCO4)[nH]2)cc1
Reply: 3.9

Task item: Which inhibition is listed for COc1cc2ncn(-c3cc(OCc4ccccc4C(F)(F)F)c(C(N)=O)s3)c2cc1OC ?
Reply: 14.3

Task item: State the recorded inhibition for this entry: COc1ccc(-c2coc3ncnc(N)c23)cc1
Reply: 7.11

Task item: Which measured inhibition value corresponds to NS(=O)(=O)c1ccc(N/N=C2\C(=O)Nc3ccc(C(=O)NCCc4c[nH]cn4)cc32)cc1 ?
Reply: 56.3

Task item: Recorded inhibition of CNC(=O)c1cncc(/C=C/c2c(Cl)cccc2Cl)c1 , please.
Reply: 3.04

Task item: Value lookup for inhibition; key = O=C1NC(=O)C(c2ccc(Cl)cc2)=C1Nc1ccc(Cl)c(C(=O)O)c1
Reply: -1.86

Task item: Need inhibition, item CS(=O)(=O)CCNCc1ccc(-c2ccc3ncnc(Nc4ccc(OCc5cccc(F)c5)c(C(F)(F)F)c4)c3c2)o1
Reply: 3.92

====

- tested.target: Rhodopsin kinase GRK7 (Homo sapiens) (UniProt Q8WTQ7);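 note: reported figures are mean percent inhibition of GRK7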
- Sequence (whole entry): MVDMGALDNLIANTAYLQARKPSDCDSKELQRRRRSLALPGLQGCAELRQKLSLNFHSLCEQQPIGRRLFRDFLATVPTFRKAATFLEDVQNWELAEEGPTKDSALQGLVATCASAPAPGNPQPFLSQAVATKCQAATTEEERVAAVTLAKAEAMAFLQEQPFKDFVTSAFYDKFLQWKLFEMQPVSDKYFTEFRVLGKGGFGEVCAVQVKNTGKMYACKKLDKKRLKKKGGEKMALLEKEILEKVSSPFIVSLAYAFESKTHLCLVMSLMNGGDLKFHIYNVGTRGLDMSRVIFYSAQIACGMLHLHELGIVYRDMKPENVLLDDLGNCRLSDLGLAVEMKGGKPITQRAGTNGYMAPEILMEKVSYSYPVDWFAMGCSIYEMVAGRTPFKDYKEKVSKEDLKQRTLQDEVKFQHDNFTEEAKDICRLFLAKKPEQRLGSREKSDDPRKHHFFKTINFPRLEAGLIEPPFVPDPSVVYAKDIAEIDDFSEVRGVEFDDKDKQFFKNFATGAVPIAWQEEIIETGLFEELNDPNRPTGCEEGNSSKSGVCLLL
- measurement.conditions: at 0.1 µM
For each entry below, report its inhibition value.

Task item: Which inhibition reading was recorded for the compound Cc1cccc(-c2n[nH]cc2-c2ccc3ncccc3n2)n1 ?
Reply: -0.51%

Task item: Field request: inhibition | item: Cn1cc(C=C2C(=O)Nc3cccnc32)c2ccccc21
Reply: 3.02%

Task item: Could you share which inhibition value was measured for Cc1ccc(C(=O)NC2CCCCC2)cc1-c1ccc(C(=O)NCC2CC2)cc1 ?
Reply: 2.64%

Task item: Recorded inhibition for CC1=C(C(=O)Nc2ccc3[nH]ncc3c2)C(c2ccc3ccccc3c2)CC(=O)N1 (stereo not given) , please?
Reply: 2.64%

Task item: Query: inhibition; subject: CCn1c(-c2nonc2N)nc2cnc(Oc3cccc(NC(=O)c4ccc(OCCN5CCOCC5)cc4)c3)cc21
Reply: 1.38%

Task item: Field request: inhibition | item: Cc1nnc(-c2ccc(C)c(-c3ccc(C(=O)Nc4cccc(C#N)c4)cc3)c2)o1
Reply: 2.5%

Task item: So what's the measured inhibition for this one? CS(=O)(=O)CCNCc1ccc(-c2ccc3ncnc(Nc4ccc(OCc5ccccc5)c(Cl)c4)c3c2)o1
Reply: 7.87%

Task item: # inhibition lookup, item O=C1Nc2ccc(C(=O)c3ccco3)cc2C1=Cc1cc(Cl)c(O)c(Cl)c1
Reply: 30.6%

Task item: Recorded inhibition for COc1cc2c(cc1Nc1nc(N3CCc4ccccc43)c3cc[nH]c3n1)N(C(=O)CN(C)C)CC2 , please?
Reply: -0.63%

Task item: Look up inhibition for this compound: CCn1c(-c2nonc2N)nc2ccncc21
Reply: 0.19%

Task item: Fill blank: measured inhibition of the compound CCn1c(-c2nonc2N)nc2cncc(C(=O)N3CC[C@H](N)C3)c21 is ____.
Reply: 3.41%

Task item: I would be grateful if you could share the reported inhibition for CC(=O)Nc1cccc(C#Cc2cncnc2Nc2ccc(OCc3cccc(F)c3)c(Cl)c2)n1 .
Reply: 1.16%

Task item: Bench note: what inhibition did Fc1cccc(COc2ccc(Nc3ncnc4sc(-c5cccs5)cc34)cc2Cl)c1 show?
Reply: 7.27%

Task item: Which measured inhibition value corresponds to N#Cc1c(NC(=O)c2cccc3ccccc23)sc2c1CCCC2 ?
Reply: 2.52%

Task item: For the compound shown here, NC(=O)c1ccc(-c2nc(-c3ccccn3)c(-c3ccc4c(c3)OCO4)[nH]2)cc1 , give the reported inhibition.
Reply: 1.63%

Task item: Which measured inhibition value corresponds to Nc1nc(-c2ccc3c(c2)C(=Cc2cc(Br)c(O)c(Br)c2)C(=O)N3)cs1 ?
Reply: -6.85%

Task item: Could you tell me which inhibition is on file for COc1ccc2cc(-c3c(-c4ccncc4)nc(-c4ccc([S+](C)[O-])cc4)n3C)ccc2c1 (stereo not given) ?
Reply: 2.62%

Task item: Bench note: what inhibition did COc1ccc(COc2ccc(Cc3cnc(N)nc3N)cc2OC)cc1 show?
Reply: 11%

Task item: Using the record for Cc1cc(O)cc(C)c1/C=C/c1cncc(-c2nn[nH]n2)c1 , report its inhibition.
Reply: 2.35%

Task item: # inhibition lookup, item COc1cc(C)c(NC(=O)CN(C)C)cc1Nc1nc(Nc2cccc(F)c2C(N)=O)c2cc[nH]c2n1
Reply: 8.5%

====

- Test system: Leucine-rich repeat serine/threonine-protein kinase 2 (Homo sapiens), Q5S007 [G2019S]
- Sequence (Q5S007 whole entry G2019S): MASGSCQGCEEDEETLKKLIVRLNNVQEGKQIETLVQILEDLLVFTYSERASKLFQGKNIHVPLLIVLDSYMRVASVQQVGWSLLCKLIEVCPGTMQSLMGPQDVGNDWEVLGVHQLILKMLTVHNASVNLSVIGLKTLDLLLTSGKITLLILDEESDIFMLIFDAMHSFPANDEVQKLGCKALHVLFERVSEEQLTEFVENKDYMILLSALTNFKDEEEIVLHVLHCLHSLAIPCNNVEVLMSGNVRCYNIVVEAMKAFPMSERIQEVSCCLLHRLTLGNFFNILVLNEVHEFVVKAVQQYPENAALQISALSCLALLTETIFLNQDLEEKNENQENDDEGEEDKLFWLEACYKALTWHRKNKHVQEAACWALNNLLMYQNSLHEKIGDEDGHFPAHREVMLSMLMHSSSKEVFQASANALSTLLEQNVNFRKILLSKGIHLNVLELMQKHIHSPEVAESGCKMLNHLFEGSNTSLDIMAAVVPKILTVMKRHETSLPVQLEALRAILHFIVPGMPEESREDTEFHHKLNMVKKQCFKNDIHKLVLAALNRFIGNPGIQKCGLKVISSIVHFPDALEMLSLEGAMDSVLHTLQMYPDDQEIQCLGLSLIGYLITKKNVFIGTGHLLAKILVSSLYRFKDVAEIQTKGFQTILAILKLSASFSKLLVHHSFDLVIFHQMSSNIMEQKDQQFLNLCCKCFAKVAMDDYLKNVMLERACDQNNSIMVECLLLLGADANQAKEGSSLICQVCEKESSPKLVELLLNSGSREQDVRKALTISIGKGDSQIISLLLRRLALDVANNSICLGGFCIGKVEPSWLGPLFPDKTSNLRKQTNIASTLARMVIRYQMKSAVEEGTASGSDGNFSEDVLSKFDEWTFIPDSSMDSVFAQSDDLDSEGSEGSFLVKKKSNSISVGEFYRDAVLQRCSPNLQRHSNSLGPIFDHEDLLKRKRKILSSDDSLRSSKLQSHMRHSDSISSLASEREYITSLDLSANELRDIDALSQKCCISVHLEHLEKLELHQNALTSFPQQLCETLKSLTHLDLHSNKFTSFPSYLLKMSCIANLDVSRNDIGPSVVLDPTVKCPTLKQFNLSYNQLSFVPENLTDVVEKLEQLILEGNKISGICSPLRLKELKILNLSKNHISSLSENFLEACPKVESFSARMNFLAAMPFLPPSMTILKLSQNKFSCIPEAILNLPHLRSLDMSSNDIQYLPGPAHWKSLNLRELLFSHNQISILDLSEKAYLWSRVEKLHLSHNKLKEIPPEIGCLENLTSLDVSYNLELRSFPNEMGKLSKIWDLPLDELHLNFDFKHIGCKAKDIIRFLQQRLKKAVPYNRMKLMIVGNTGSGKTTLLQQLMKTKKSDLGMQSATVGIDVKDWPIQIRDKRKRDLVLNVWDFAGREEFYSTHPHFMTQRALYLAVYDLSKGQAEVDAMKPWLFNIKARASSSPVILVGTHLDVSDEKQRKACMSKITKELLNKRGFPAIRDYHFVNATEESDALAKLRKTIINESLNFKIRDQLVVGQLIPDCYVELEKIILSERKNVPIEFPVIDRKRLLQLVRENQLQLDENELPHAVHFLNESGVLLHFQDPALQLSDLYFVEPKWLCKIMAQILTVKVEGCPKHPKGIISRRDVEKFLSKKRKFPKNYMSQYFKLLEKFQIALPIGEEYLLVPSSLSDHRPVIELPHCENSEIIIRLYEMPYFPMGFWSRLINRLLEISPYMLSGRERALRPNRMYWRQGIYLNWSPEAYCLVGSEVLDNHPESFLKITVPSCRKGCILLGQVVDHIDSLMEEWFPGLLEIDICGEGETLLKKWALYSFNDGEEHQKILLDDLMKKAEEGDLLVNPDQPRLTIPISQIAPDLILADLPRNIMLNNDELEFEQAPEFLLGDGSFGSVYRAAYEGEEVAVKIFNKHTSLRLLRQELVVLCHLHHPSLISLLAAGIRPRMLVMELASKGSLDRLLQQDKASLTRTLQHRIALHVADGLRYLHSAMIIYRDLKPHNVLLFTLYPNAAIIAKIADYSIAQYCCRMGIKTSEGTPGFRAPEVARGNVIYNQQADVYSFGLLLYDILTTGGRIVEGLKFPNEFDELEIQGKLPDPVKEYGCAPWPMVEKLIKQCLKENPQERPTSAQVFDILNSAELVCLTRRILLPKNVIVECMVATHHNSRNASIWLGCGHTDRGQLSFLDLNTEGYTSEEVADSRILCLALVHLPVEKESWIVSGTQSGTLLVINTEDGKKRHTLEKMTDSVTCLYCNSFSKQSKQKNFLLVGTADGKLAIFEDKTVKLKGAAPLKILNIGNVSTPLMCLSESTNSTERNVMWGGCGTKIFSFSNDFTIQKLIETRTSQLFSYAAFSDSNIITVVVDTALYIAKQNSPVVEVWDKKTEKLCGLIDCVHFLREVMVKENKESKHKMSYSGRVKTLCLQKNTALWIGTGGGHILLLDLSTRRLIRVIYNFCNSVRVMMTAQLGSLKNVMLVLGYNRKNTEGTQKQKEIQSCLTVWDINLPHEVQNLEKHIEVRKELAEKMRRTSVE
- measurement.conditions: at 0.1 µM
So I've got a bunch of compounds here, and I need their inhibition values.
Unit % implied. Number only.

Task item: # query: inhibition of entry CN(C)c1cc2c(Nc3ccc4nc(Cc5ccccc5)[nH]c4c3)ncnc2cn1
Reply: 5.3

Task item: # inhibition lookup, item CC1=C(C(=O)Nc2ccc3[nH]ncc3c2)C(c2ccc(Cl)c(Cl)c2)CC(=O)N1 (centres undefined)
Reply: 0.95

Task item: Suppose we examine the compound Cc1nnc(-c2ccc(C)c(-c3ccc(C(=O)Nc4cccc(C#N)c4)cc3)c2)o1 ; what inhibition value has been reported?
Reply: 2.49

Task item: Sample CS(=O)(=O)Nc1ccc(N/C=C2\C(=O)Nc3ccccc32)cc1 — what was its inhibition?
Reply: 5.01

====

- tested.target: Rho-associated protein kinase 2 (Homo sapiens) (UniProt O75116);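 note: values are averaged inhibition readings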
- Sequence (O75116 whole entry, looked up): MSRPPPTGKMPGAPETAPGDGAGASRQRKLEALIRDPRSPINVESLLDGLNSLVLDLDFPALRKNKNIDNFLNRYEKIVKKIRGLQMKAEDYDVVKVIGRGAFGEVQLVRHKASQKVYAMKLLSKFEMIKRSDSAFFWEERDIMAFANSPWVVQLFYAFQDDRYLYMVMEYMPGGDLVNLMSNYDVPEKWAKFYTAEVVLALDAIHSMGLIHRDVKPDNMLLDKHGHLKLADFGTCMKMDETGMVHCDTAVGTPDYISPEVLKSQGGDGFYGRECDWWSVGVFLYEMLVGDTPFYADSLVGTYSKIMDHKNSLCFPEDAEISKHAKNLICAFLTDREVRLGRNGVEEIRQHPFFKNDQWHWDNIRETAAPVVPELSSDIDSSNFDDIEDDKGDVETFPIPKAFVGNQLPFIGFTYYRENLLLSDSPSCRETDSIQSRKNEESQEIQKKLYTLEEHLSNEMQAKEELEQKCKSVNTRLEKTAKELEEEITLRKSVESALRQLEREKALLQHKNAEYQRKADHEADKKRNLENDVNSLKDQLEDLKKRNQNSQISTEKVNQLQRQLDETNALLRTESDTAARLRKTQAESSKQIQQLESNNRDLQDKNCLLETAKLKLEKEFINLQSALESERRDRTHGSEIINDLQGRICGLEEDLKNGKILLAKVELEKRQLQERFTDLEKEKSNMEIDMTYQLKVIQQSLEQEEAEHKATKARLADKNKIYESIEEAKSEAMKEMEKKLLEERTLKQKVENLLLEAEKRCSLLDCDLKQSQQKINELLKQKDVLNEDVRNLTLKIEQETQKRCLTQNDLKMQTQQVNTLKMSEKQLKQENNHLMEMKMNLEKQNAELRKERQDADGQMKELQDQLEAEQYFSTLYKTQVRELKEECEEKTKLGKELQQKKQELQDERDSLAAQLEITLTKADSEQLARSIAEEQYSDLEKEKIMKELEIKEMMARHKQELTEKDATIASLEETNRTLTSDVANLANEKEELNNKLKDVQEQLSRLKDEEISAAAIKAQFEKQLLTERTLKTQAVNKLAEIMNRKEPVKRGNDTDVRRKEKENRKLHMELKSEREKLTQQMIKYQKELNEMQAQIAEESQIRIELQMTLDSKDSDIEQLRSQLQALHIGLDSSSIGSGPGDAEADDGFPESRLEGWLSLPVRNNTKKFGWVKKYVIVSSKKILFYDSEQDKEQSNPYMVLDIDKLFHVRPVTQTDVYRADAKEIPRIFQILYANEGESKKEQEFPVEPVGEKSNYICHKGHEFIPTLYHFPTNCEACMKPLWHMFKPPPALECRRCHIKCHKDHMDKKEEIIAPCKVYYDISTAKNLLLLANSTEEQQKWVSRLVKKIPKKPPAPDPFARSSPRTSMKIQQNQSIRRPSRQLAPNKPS
- measurement.conditions: at 0.1 µM
For each entry below, report its inhibition value.
Please respond with the number in % and leave the unit unwritten.

Task item: Which inhibition value is on record for CCn1c(-c2nonc2N)nc2cncc(C(=O)N3CC[C@H](N)C3)c21 ?
Reply: 74.9

Task item: Item under review: Cc1ccc(NC(=O)c2ccnc(N3CCCC3)c2)cc1-c1ccc(C(=O)NCC2CC2)cc1 . Reported inhibition?
Reply: 5.19

Task item: Param item = COc1ccc(-c2nn3ncccc3c2-c2ccnc(Nc3ccc(Cl)c(C(F)(F)F)c3)n2)cc1 ; retrieve measured inhibition.
Reply: 0.42

Task item: Suppose we examine the compound CC1=C(C(=O)Nc2ccc3[nH]ncc3c2)C(c2ccc(Cl)c(Cl)c2)CC(=O)N1 (centres undefined) ; what inhibition value has been reported?
Reply: 71.2

Task item: # input compound: COc1cc2ncn(-c3cc(O[C@H](C)c4ccccc4Cl)c(C(N)=O)s3)c2cc1OC ; wanted: its inhibition
Reply: 4.45

Task item: Please give the measured inhibition for this compound: CS(=O)(=O)CCNCc1nc(-c2ccc3ncnc(Nc4ccc(F)c(Cl)c4)c3c2)cs1
Reply: 2.45

Task item: Which value of inhibition has been reported for Nc1nc(-c2ccc3c(c2)C(=Cc2cc(Br)c(O)c(Br)c2)C(=O)N3)cs1 in the records?
Reply: -0.52

Task item: What value of measured inhibition is listed for COc1ccc(COc2ccc(Cc3cnc(N)nc3N)cc2OC)cc1 ?
Reply: 1.54

Task item: Form field: reported inhibition of COc1ccc2cc(-c3c(-c4ccncc4)nc(-c4ccc([S+](C)[O-])cc4)n3C)ccc2c1 (centres undefined)
Reply: 2.12

Values were extracted from ChEMBL document CHEMBL1961873.
